Reported inhibition of dimerization (BRET signal, CHO cells) values for a set of binders
target: C-Met-Rluc and C-Met-K1100A-YFP co-expressed in CHO stable cell lines (R. reniformis), P08581; assay: cell-based or functional assay
Quick note: give the figure in %, leave out the unit.

227H1 murine monoclonal antibody (antibody, mouse IgG1, V domains shown, also called CNCM I-3732) VH: EVQLQQSGPELVKPGASMKISCKASGYSFTDYTLNWVKQSHGKTLEWIGLINPYNGGTTYNQKFKGKATLTVDKSSSTAYMELLSLTSEDSAVYYCAREEITKDFDFWGQGTTLTVSS VL: GIVLTQSPASLAVSLGQRATISCRVSESIDTYGNSFIHWYQQKPGQPPKLLIYRASNLESGIPARFSGSGSRTDFTLTINPVEADDSATYYCQQSNEDPFTFGSGTKLEMK    52
224G11 murine monoclonal antibody (antibody, mouse IgG1, V domains shown, also called CNCM I-3731) VH: EVQLQQSGPELVKPGASVKISCKTSGYIFTAYTMHWVRQSLGESLDWIGGIKPNNGLANYNQKFKGKATLTVDKSSSTAYMDLRSLTSEDSAVYYCARSEITTEFDYWGQGTALTVSS VL: DIVLTQSPASLAVSLGQRATISCRASESVDSYANSFMHWYQQKPGQPPKLLIYRASNLESGIPARFSGSGSRTDFTLTINPVEADDVATYYCQQSKEDPLTFGSGTKLEMK    32
223C4 murine monoclonal antibody (antibody, mouse IgG1, V domains shown, also called CNCM I-3786) VH: EVLLQQSGPELVKPGASVKIPCKASGYTFTDYNMDWVKQSHGMSLEWIGDINPNNGGTIFNQKFKGKATLTVDKSSSTAYMELRSLTSEDTAVYYCARGRYVGYYYAMDYWGQGTSVTVSS VL: DIQMTQSPASLSVSVGETVTITCRASENIYSNLAWYQQKQGKSPQLLVYAATNLVDGVPSRFSGSGSGTQYSLKINSLQSEDFGSYYCQHFWGPPYTFGGGTKLEIK    55

Query binder follows.
Identify measured inhibition of dimerization (BRET signal, CHO cells) associated with 11E1 murine monoclonal antibody (antibody, V domains shown, Used as hybridoma supernatant or purified Mab; also called MAb 11E1; CNCM I-3724) VH: QVQLQQSGAELAKPGASVKMSCKASGYTFTSYWMNWVKQRPGQGLEWIGYINPTTGSTDYNQKLKDKATLTADKSSNTAYMQLSSLTSEDSAVYYCAIGGYGSWFAYWGQGTLVTVSA VL: QIVLTQSPAIMSASPGEKVTLTCSASSSVSSTYLYWYQQKPGSSPKLWIYTTSILASGVPARFSGSGSGTSYSLTISSMETEDAASYFCHQWSSYPFTFGSGTKLDIK
69
